Field: pKi. System: Carbonic anhydrase 9 (Homo sapiens). Provenance: assorted publications.
Units for pKi: none; it is -log10 of a concentration expressed in mol/L.

Reference set, count: 5
> print(dat)
                                   molecule                               system  observed
1  NS(=O)(=O)c1ccc(NC(=O)c2c(F)c(F)cc(F)c2F)cc1  Carbonic anhydrase 9 (Homo sapiens)      7.82
2  CC1(C)OB(c2ccc(C(=O)Nc3nnc(S(N)(=O)=O)s3)cc2)OC1(C)C  Carbonic anhydrase 9 (Homo sapiens)      8.12
3  Cc1cc(=O)oc2cc(NC(=O)NS(=O)(=O)c3ccccc3Cl)ccc12  Carbonic anhydrase 9 (Homo sapiens)      7.06
4  NS(=O)(=O)c1ccc(NC(=O)NNS(=O)(=O)c2ccccc2)cc1  Carbonic anhydrase 9 (Homo sapiens)      7.13
5  NS(=O)(=O)c1ccc(NC(=O)CSC(=S)N2CCN(c3ccc(F)c(Cl)c3)CC2)cc1  Carbonic anhydrase 9 (Homo sapiens)      6.56

Exam item: Quote pKi with test system Carbonic anhydrase 9 (Homo sapiens) for O=C(O)c1ccccc1C(=O)Nc1ccc2[nH]c(=O)n(O)c(=O)c2c1
Marked response: 7.20

Exam item: Report its pKi with Carbonic anhydrase 9 (Homo sapiens) as the test system: NS(=O)(=O)c1ccc(C[Se]c2ccc(NC(=S)Nc3ccc(-c4c5ccc(=O)cc-5oc5cc(O)ccc45)c(C(=O)O)c3)cc2)cc1
Marked response: 6.16

Exam item: Consider the compound NC(=O)c1ccc(-c2ccc(S(N)(=O)=O)cc2)cc1 tested on Carbonic anhydrase 9 (Homo sapiens); state its pKi.
Marked response: 6.08

Exam item: Lab note: Carbonic anhydrase 9 (Homo sapiens) assay, enter pKi for NS(=O)(=O)c1ccc(NC(=O)CCN2CCOCC2)cc1 here
Marked response: 6.74

Exam item: State the measured pKi (Carbonic anhydrase 9 (Homo sapiens)) of Cc1nn(-c2ccccc2)c2c1c(=O)oc1ccc(NCc3ccccc3)cc12
Marked response: 7.42

---

Below: compounds with Ki recorded for Carbonic anhydrase 9 (Homo sapiens, UniProt Q16790) in separate published works.

> print(dat)
                                   compound  experimental.endpoint  observed
1  NS(=O)(=O)c1cc(NC(=O)NNC(=O)c2ccccc2)c(Cl)cc1Cl                     Ki   12.5 nM
2  CC(=O)N1N=C(c2cccc(OS(N)(=O)=O)c2)CC1c1cccc(Cl)c1 (configuration not stated)                     Ki    7.3 nM

Exam item: Under Carbonic anhydrase 9 (Homo sapiens, UniProt Q16790), report Ki for C=CCOc1ccc2oc(=O)ccc2c1
Marked response: 930 nM

Exam item: Name the value of Ki reported for COC(=O)CNC(=O)Nc1ccc(S(N)(=O)=O)cc1 when tested on Carbonic anhydrase 9 (Homo sapiens, UniProt Q16790).
Marked response: 1920 nM

Exam item: Report its Ki with Carbonic anhydrase 9 (Homo sapiens, UniProt Q16790) as the test system: Oc1ccccc1/C=N/c1ccccc1/N=C/c1ccccc1O
Marked response: 2450 nM

Exam item: Write down the reported Ki (system: Carbonic anhydrase 9 (Homo sapiens, UniProt Q16790)) of O=C(O)c1ccccc1S(=O)(=O)NCc1ccccc1
Marked response: 342 nM

Exam item: Give the observed Ki of CCOC(=O)c1ccc(O)cc1O for Carbonic anhydrase 9 (Homo sapiens, UniProt Q16790).
Marked response: 820 nM

Exam item: Enter Ki (test system Carbonic anhydrase 9 (Homo sapiens, UniProt Q16790)) for O=C(O)c1cc(-c2ccc(N3CCCC3)cc2)[nH]n1
Marked response: > 50000 nM

---

Dear all, I have gathered published Ki values for Carbonic anhydrase 9 (Homo sapiens, UniProt Q16790); the list follows.

Some entries whose results are on file:
> print(dat)
                                   molecule     observed
1  N/C(=N\S(=O)(=O)c1ccccc1SCc1ccc(C(F)(F)F)cc1)NNc1nc(Cl)nc(NCc2ccc(S(N)(=O)=O)cc2)n1      47.1 nM
2  O=C(CSc1nccc(Nc2ccc(S(=O)(=O)Nc3ccccn3)cc2)n1)c1ccccc1  > 100000 nM
3       NS(=O)(=O)c1ccc(-n2cc(CCCCl)nn2)cc1       6.2 nM
4  CC(C)Oc1ccc2c(c1)C(=O)CC1(CCN(c3ccc(S(N)(=O)=O)cc3[N+](=O)[O-])CC1)O2      3300 nM
5  COC(=O)[C@H]1O[C@@H](n2cc(COC(=O)c3ccc(S(N)(=O)=O)cc3)nn2)[C@H](O)[C@@H](O)[C@@H]1O       241 nM
6  CC(C)c1ccc(-c2cc(C(=O)O)n[nH]2)c(C(C)C)c1     16000 nM
7     COc1ccccc1NC(=O)Nc1ccc(S(N)(=O)=O)cc1       465 nM
8  COc1ccc2c(c1)CCN(S(N)(=O)=O)C2c1cccc([N+](=O)[O-])c1 (racemic)        16 nM

Moving on to the next molecule.
Exam item: Enter measured Ki, system Carbonic anhydrase 9 (Homo sapiens, UniProt Q16790), for the molecule shown: NS(=O)(=O)c1ccc(Oc2no[n+]([O-])c2S(=O)(=O)c2ccccc2)cc1
Marked response: 6.4 nM

---

// merged dataset of Ki values, system = Carbonic anhydrase 9 (Homo sapiens, UniProt Q16790), multiple refs
Express the result in nM but write the number alone.

Some solved entries appear below for comparison.
> print(dat)
                                   compound  observed
1           CC(C)C(=O)Nc1ccc(S(N)(=O)=O)cc1       139
2  NS(=O)(=O)c1ccc(-n2nc(CO)cc2-c2ccccc2)cc1        27
3  CC(C)Oc1ccc2c(c1)OC1(CCN(c3ccc(S(N)(=O)=O)cc3[N+](=O)[O-])CC1)CC2=O      34.6
4              O=C(S)N1CCN(c2cccc(Cl)c2)CC1       4.9
5  NS(=O)(=O)c1cn(-c2ccc([N+](=O)[O-])cc2[N+](=O)[O-])ccc1=O       5.8

Exam item: Specify reported Ki for the compound shown: Nc1ccc(S(N)(=O)=O)cc1F
Marked response: 245

Exam item: Look up Ki of CC(=O)O[C@@H]1O[C@H](COS(N)(=O)=O)[C@H](OC(C)=O)[C@H](OC(C)=O)[C@H]1OC(C)=O and report it.
Marked response: 75

Exam item: Report Ki, nothing else, for this compound: CCCN(CCC)S(=O)(=O)c1ccc(C(=O)N[C@@H](Cc2ccccc2)C(N)=O)cc1
Marked response: 25

Exam item: In one line, give reported Ki of the entry C=C(C)CNS(=O)(=O)c1ccc(N)cc1 .
Marked response: 3460

Exam item: Fill in Ki for record COc1cc2c(cc1OC)C(c1ccc(F)cc1)N(C(=O)c1ccc(S(N)(=O)=O)cc1)CC2 (racemic)
Marked response: 9.1

---

Literature-derived pKi for UniProt:Q16790 follows.
By convention, pKi is the negative base-10 log of a molar concentration.

Recorded pKi, per entry:
> print(dat)
                                    compound  observed
 1  CC(C)(C)N1C(=O)C=C(c2cn(S(=O)(=O)c3ccccc3)c3ccccc23)S1(=O)=O      8.37
 2     Cc1c2c(=O)oc3ccc(Br)cc3c2nn1-c1ccccc1      7.60
 3  Cc1c(C(=O)/C=C/Nc2ccccc2S(N)(=O)=O)sc2nc3ccccc3n12      6.30
 4                  NNc1ccc(S(N)(=O)=O)cc1Cl      6.83
 5  Cc1ccc2c(c1)C(=O)N(c1ccc(S(N)(=O)=O)cc1)C2=O      8.48
 6  NS(=O)(=O)c1ccc2c(c1)C1C=CCC1C(c1ccccc1Cl)N2 (racemic)      5.68
 7    NS(=O)(=O)c1ccc(/N=C/c2cc(Cl)ccc2O)cc1      7.32
 8  Cc1c(C(=O)NCCCN2CCOCC2)cc(-c2ccc(-c3ccccc3)cc2)n1-c1ccc(S(N)(=O)=O)cc1      7.00
 9  CC(C)CC(=O)OC[C@H]1O[C@@H](n2cc(-c3ccc(S(N)(=O)=O)cc3)nn2)[C@H](OC(=O)CC(C)C)[C@@H](OC(=O)CC(C)C)[C@H]1OC(=O)CC(C)C      6.43
10              O=S(=O)(O)/C=C/c1cc(Br)ccc1O      5.17

Exam item: Output reported pKi of the compound NS(=O)(=O)c1ccccc1NCCC(=O)c1ccccc1 on UniProt:Q16790.
Marked response: 6.51

Exam item: Find pKi for NS(=O)(=O)c1ccc(CNS(=O)(=O)c2ccc(N/C(S)=N/CCN3CCOCC3)cc2)cc1 on UniProt:Q16790 and write it down.
Marked response: 8.32

Exam item: Provide pKi, recorded with UniProt:Q16790, of NS(=O)(=O)c1cn(Cc2ccccc2)ccc1=O
Marked response: 8.11

Exam item: Determine reported pKi for CC1=NN(c2ccc(Cl)cc2Cl)C(=O)/C1=N/Nc1ccc(S(N)(=O)=O)cc1 ; test system: UniProt:Q16790.
Marked response: 8.07

Exam item: Determine reported pKi for NS(=O)(=O)c1ccc(NC(=O)N2CCN(c3cccc(Cl)c3)CC2)cc1 ; test system: UniProt:Q16790.
Marked response: 6.63

Exam item: For UniProt:Q16790, give pKi of the listed compound: O=C(Nc1ccc(Cl)cc1C(=O)O)c1ccc2c(c1)C(=O)OC2=O
Marked response: 7.28

Exam item: Enter pKi (test system UniProt:Q16790) for N/C(=N\S(=O)(=O)c1ccccc1SCc1cccc(C(F)(F)F)c1)NNc1nc(Cl)nc(Nc2ccc(S(N)(=O)=O)cc2)n1
Marked response: 7.43

Exam item: Recall the reported pKi of Nc1nc(-c2ccc(OCCNCCc3ccc(S(N)(=O)=O)cc3)cc2)cn2c(=O)n(-c3ccccc3)nc12 on UniProt:Q16790 and write it down.
Marked response: 5.02

Exam item: Report pKi on UniProt:Q16790 for this entry: NNC(=O)c1nnn(-c2ccc(S(N)(=O)=O)cc2)c1-c1cccs1
Marked response: 5.55

Exam item: GET pKi where system = UniProt:Q16790 and item = NS(=O)(=O)c1cccc(Nc2cc(-c3ccccc3)nc(SCC(=O)c3ccccc3)n2)c1
Marked response: 6.14
